# System: Saccharomyces cerevisiae BY4741 SeMeCo community
# assay overview: z-score of subpopulation abundance vs DMSO median, subpopulation auxotrophic for LU; higher = larger share of this subpopulation than in DMSO controls
# condition parameters: 10 µM; 24 h; SM minimal medium; subpopulation (auxotrophy): LU
Answer each item with its documented z-score of subpopulation abundance.
Reply with the value as a number alone.

The recorded z-score of subpopulation abundance with Saccharomyces cerevisiae BY4741 SeMeCo community for COc1ccc2[nH]c([S+]([O-])Cc3ncc(C)c(OC)c3C)nc2c1 (stereo not drawn) [Omeprazole Sodium] was -0.12

Fill in: Saccharomyces cerevisiae BY4741 SeMeCo community z-score of subpopulation abundance for Oc1ccc(Cl)c2cccnc12 = 6.41

Record CCn1cc(C(=O)O)c(=O)c2cc(F)c(N3CCNCC3)nc21 [Enoxacin] / Saccharomyces cerevisiae BY4741 SeMeCo community, z-score of subpopulation abundance recorded as 0.6

Entry O=C(C1CCCCC1)N1CC(=O)N2CCc3ccccc3C2C1 (stereo not drawn) under Saccharomyces cerevisiae BY4741 SeMeCo community had z-score of subpopulation abundance of 0.75

Note to self: z-score of subpopulation abundance of CC#C[C@]1(O)CC[C@H]2[C@@H]3CCC4=CC(=O)CCC4=C3[C@@H](c3ccc(N(C)C)cc3)C[C@@]21C with Saccharomyces cerevisiae BY4741 SeMeCo community was 0.63

Observed z-score of subpopulation abundance on Saccharomyces cerevisiae BY4741 SeMeCo community, entry Cc1ccc(S(=O)(=O)NC(=O)NN2CC3CCCC3C2)cc1 (stereo not drawn) [Gliclazide] , equals -0.08

Item: CC(C)(O/N=C(\C(=O)N[C@@H]1C(=O)N2C(C(=O)[O-])=C(C[n+]3ccccc3)CS[C@H]12)c1csc(N)n1)C(=O)O | System: Saccharomyces cerevisiae BY4741 SeMeCo community | z-score of subpopulation abundance: -0.93

The reported z-score of subpopulation abundance value, Saccharomyces cerevisiae BY4741 SeMeCo community, for C#C[C@]1(O)CC[C@H]2[C@@H]3CCc4cc(OC)ccc4[C@H]3CC[C@@]21C reads -0.19
